src = PubChem BioAssay (EPA / NIEHS)

assay: CCTE_Deisenroth_5AR_NBTE_acceptor: CCTE's 5alpha-reductase NanoBRET Target Engagement Assay - Autofluorescence Screen, Deisenroth Lab (AID 2284321); conditions: actives raise or lower the signal;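 also: compound fluorescence in the acceptor channel under 460 nm excitation flags autofluorescence artifacts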
Calls of active or inactive are those of the source. The calls were made as follows: active = hit-call score of the fitted dose curve at least 0.9, where 1 is the maximum; inactive = score below 0.9.
I would appreciate it if you answered using one of these outcomes: T (active), F (inactive)

Use the examples below as a reference point.
> print(dat)
                                   compound  group
1                  CCCCCCCCCCCCCC(=O)OC(C)C      F
2                O=C(OCc1ccccc1)c1ccc(O)cc1      F
3  CC1=NN(c2ccc(S(=O)(=O)O)cc2)C(=O)C1N=Nc1ccccc1 (stereo unspecified)      F
4     CN(C)c1ccc2nc3ccc(=[N+](C)C)cc-3sc2c1      T
5  CC(C)(C)NC(=O)[C@H]1CC[C@H]2[C@@H]3CC[C@H]4NC(=O)C=C[C@]4(C)[C@H]3CC[C@]12C      F

Query: What did the test return for O=S(=O)(O)c1ccc(N=Nc2c(O)ccc3ccccc23)cc1 ?
Result: F

Query: Quick one: CCCCCCCCCC[N+](C)(CCCCCCCCCC)CCC[Si](OC)(OC)OC
Result: T

Query: Quick one: COc1ccc(-c2coc3cc(O)cc(O)c3c2=O)cc1
Result: F

Query: Quick one: CCCCCCCCCCCC(=O)N(C)CC(=O)O
Result: F

Query: Quick one: C=C[C@@]1(C)CC(=O)[C@]2(O)[C@@]3(C)[C@@H](O)CCC(C)(C)[C@@H]3[C@H](O)[C@H](OC(C)=O)[C@@]2(C)O1
Result: F

Query: Quick one: O=C(O)CCC(=O)O
Result: F
